B1: CAMK2B (parent)
chain: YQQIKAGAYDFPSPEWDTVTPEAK

Variants of: B1
Assay: protein stability index of a GFP-peptide fusion (GPS, HEK-293T) (PSI 1-6); higher = more stable;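 further: lentivirally expressed fusions sorted by FACS into six bins by GFP to DsRed ratio, PSI derived from sequencing read proportions per bin multiplied by bin number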
Conditions: c terminus: a fixed tail appended
# Lookup of reported protein stability index keyed by entry
Please give the numeric answer without any surrounding text.

// known answers, use as guide
>>> observedresult("YQQIKAGAYDFESPEWDTVTPEAK [P12E]")
4.09
>>> observedresult("YQQIKAGAYDSPSPEWDTVTPEAK [F11S]")
4.36
>>> observedresult("YQQIKAGAYDFPSPEWDTVTYEAK [P21Y]")
3.08
>>> observedresult("YQQIKAGAYDFPSPEWDTVTPIAK [E22I]")
3.05
>>> observedresult("YQQIKAGAYDFPWPEWDTVTPEAK [S13W]")
2.8
>>> observedresult("YQQIKIGAYDFPSPEWDTVTPEAK [A6I]")
2.77
>>> observedresult("YQQIKAGAYDFPSPEWDQVTPEAK [T18Q]")
4.03
>>> observedresult("YQQIKAGAYDFPSPEWDTVWPEAK [T20W]")
2.46

// protein stability index lookup, variant = YQQIAAGAYDFPSPEWDTVTPEAK [K5A] , result: 4.07

The value of protein stability index measured for the variant YQQIKAGAYDFPYPEWDTVTPEAK [S13Y] turned out to be 3.6

Form field protein stability index, entry YQQIKAGAYDFPSPEWDTKTPEAK [V19K] : 3.66

Reported protein stability index of YQQIKAGAYDFPSPEWDTVDPEAK [T20D] : 4.31

Lab note: YQQIKAGAYDFPSPEWDFVTPEAK [T18F] gave protein stability index of 3.09

The reported protein stability index of the variant IQQIKAGAYDFPSPEWDTVTPEAK [Y1I] was 3.89

So, YQQIKAGAYFFPSPEWDTVTPEAK [D10F] ? Its protein stability index was 1.98

# protein stability index (variant: YQQIKAGAYDFPSPEWDTHTPEAK [V19H] ) is 4.01

Item: WQQIKAGAYDFPSPEWDTVTPEAK [Y1W] | protein stability index: 4.15

Value of measured protein stability index for the entry YQQIKAGAYDFPSPEWDTVTPHAK [E22H] : 2.98

The recorded protein stability index for YQQIKNGAYDFPSPEWDTVTPEAK [A6N] is 3.44

Just so you know, measured protein stability index for YQQIKAGAYDEPSPEWDTVTPEAK [F11E] came out at 4.72

The variant listed as YQQIKAGAYDWPSPEWDTVTPEAK [F11W] shows protein stability index equal to 3.15

Sample YQQIKAGAYDFPRPEWDTVTPEAK [S13R] ; protein stability index observed: 3.29

# protein stability index (variant: YQKIKAGAYDFPSPEWDTVTPEAK [Q3K] ) is 2.75

Looking up YQQIKAGAYDFPQPEWDTVTPEAK [S13Q] , I found its protein stability index recorded as 2.9
